// values below are reported relative viability
- System: NCI-H23
- assay.overview: relative viability (nuclei count vs DMSO), 5 days (fraction); higher = more cells survive
- applied.conditions: first compound 50 µM
Form rule: numeric answer, no unit written next to it.

{"columns": ["compound", "relative viability"],
 "data": [
  ["O=C(O)CCCCC(CCSCc1ccccc1)SCc1ccccc1 (stereo not drawn) [CPI-613] + O=C(CCCCCCC(=O)Nc1ccccc1)NO [Vorinostat] (partner 1 µM)", 0.591],
  ["O=C(O)CCCCC(CCSCc1ccccc1)SCc1ccccc1 (stereo not drawn) [CPI-613] + CS(=O)(=O)N1CCN(Cc2cc3nc(-c4cccc5[nH]ncc45)nc(N4CCOCC4)c3s2)CC1 [Pictilisib] (partner 1 µM)", 0.457]
]}

Consider the additional compound presented here.
Ask: Need relative viability, item O=C(O)CCCCC(CCSCc1ccccc1)SCc1ccccc1 (stereo not drawn) [CPI-613] + C[C@]1(O)C[C@@H](c2nc(-c3ccc4ccc(-c5ccccc5)nc4c3)c3c(N)nccn32)C1 [Linsitinib] (partner 1 µM)
Reply: 0.395
